# target under test: human PRMT6 (Homo sapiens, UniProt Q96LA8)
# Construct: Flag-PRMT6-His; made in house; host or cells: HEK 293F cells (BacMam baculovirus, pFastBacMam)
# Sequence (Q96LA8 with tags, fused parts or gaps): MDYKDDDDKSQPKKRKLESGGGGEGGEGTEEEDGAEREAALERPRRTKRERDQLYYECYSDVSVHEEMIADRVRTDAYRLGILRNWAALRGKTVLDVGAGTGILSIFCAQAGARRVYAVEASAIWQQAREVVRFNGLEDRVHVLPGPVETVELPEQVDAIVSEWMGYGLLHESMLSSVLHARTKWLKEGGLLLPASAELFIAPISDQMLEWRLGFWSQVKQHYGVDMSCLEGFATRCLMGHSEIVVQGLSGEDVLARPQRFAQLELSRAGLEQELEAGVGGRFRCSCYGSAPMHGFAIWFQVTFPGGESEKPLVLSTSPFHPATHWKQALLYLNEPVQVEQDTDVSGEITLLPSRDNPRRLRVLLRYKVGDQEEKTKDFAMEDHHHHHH
# protocol text: PRMT6 Biochemical Assay
# test settings: peptide substrate, 3H-SAM Flashplate assay; read-out: PRMT6 IC50
pIC50: −log10 of the molar value.
test readout: pIC50

The cases that follow already have their pIC50 on record.
CNCCN(C)Cc1c[nH]nc1-c1ccc(OCCOc2ccc(OCCN3CCOCC3)cc2)cc1: 8.34
CNCCN(C)Cc1c[nH]nc1[C@H]1CC[C@@H](OCCOc2ccc(OCCOC)cc2)CC1: 7.57
CC(C)Cc1ccc(-c2n[nH]cc2CN(C)CCN)cc1C(F)(F)F: 7.37
CNCCN(C)Cc1c[nH]nc1-c1cc(F)c(OCC2CCC2)c(C(F)(F)F)c1: 8.16

(A) CNCCN(C)Cc1c[nH]nc1-c1ccc(OCCCOC)c(OC2CCOCC2)c1
(B) CNCCN(C)Cc1c[nH]nc1-c1ccc(N(C)C2CCOCC2)nc1
(C) CNCCN(C)Cc1c[nH]nc1-c1ccc(N(C)CCCOc2ccc(OC)cc2)cc1 [Compound 10]
(D) CNCCN(C)Cc1c[nH]nc1-c1cc(OC2CCOC2)cc(C(F)(F)F)c1 (centres unmarked)
Hey, quick one: sort these by pIC50, low to high? Thanks in advance for listing the labels in the requested order.
B, D, A, C

----------
# target under test: human PRMT6 (Homo sapiens, UniProt Q96LA8)
# Construct: Flag-PRMT6-His; made in house; host or cells: HEK 293F cells (BacMam baculovirus, pFastBacMam)
# protocol text: PRMT6 Biochemical Assay
# test settings: peptide substrate, 3H-SAM Flashplate assay; read-out: PRMT6 IC50
pIC50: −log10 of the molar value.
test readout: pIC50

(A) CNCCN(C)Cc1ccnn1-c1ccc(COC)cc1
(B) CN(CCN)Cc1c[nH]nc1-c1ccc2c(c1)OCC(=O)N2
Which has the smaller recorded pIC50, A or B ? // return label of chosen record
A

(1) C=C(C)COc1c(Cl)cc(-c2n[nH]cc2CN(C)CCNC)cc1Cl
(2) CNCCN(C)Cc1ccnn1-c1ccc(OCC2CC2)cc1
(3) CNCCN(C)Cc1cnn(C)c1-c1cccc(CC(C)C)c1
Hey, quick one: sort these by pIC50, low to high? Thanks in advance for listing the labels in the requested order.
3, 2, 1
(3: 6.66, 2: 7.31, 1: 7.88)

(1) CNCCN(C)Cc1c[nH]nc1-c1ccc(N(CCCN2CCOCC2)CC(C)C)nc1
(2) CNCCN(C)Cc1c[nH]nc1-c1cc(OC2CCOCC2)cc(C(F)(F)F)c1
I'd appreciate it if you could identify which of 1 and 2 has the greater pIC50. // return label of chosen record
2

(I) CNCCN(C)Cc1c[nH]nc1-c1ccc(OC2CCOCC2)nc1
(II) CNCCN(C)Cc1c[nH]nc1-c1ccc(NC(C)c2cccnc2)nc1 (stereo not drawn)
I'd appreciate it if you could identify which of I and II has the greater pIC50. // return label of chosen record
II
(II: 7.69, I: 7.48)

----------
# target under test: human PRMT1 (Homo sapiens)
# Construct: GST-tagged PRMT1; made in house; host or cells: High Five insect cells (baculovirus, pFastBac1)
# Sequence (Q99873 with tags, fused parts or gaps): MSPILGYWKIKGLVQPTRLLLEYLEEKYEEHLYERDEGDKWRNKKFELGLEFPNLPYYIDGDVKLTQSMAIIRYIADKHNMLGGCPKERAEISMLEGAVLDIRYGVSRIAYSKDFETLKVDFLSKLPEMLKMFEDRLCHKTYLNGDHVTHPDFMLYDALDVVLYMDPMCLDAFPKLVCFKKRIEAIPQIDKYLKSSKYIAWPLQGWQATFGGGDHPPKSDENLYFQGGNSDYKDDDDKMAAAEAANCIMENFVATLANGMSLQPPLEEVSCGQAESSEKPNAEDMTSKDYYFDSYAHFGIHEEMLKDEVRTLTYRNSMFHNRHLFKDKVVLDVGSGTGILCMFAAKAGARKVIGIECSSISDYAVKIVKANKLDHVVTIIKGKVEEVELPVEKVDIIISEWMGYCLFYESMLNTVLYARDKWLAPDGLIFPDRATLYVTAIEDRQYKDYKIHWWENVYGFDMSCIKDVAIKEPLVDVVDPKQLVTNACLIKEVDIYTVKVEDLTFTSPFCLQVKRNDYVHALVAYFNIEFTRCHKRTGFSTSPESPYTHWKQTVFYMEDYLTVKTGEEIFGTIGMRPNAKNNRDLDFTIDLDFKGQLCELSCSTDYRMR
# protocol text: PRMT1 Biochemical Assay
# test settings: peptide substrate, 3H-SAM Flashplate assay; read-out: PRMT1 IC50
pIC50: −log10 of the molar value.
test readout: pIC50

CNCCN(C)Cc1c[nH]nc1-c1cc(C)c(OCC2CC2)c(C(F)(F)F)c1: 8.05

(a) CNCCN(C)Cc1c[nH]nc1-c1cc(Cl)c(OCC(C)C)c(C(F)(F)F)c1
(b) CNCCN(C)Cc1c[nH]nc1-c1cnc(OCCOC)c(C(F)(F)F)c1
Which has the smaller recorded pIC50, a or b ? // return label of chosen record
b
(b: 7.70, a: 7.94)

(a) CNCCN(C)Cc1c[nH]nc1-c1ccc(OC2CCOCC2)nc1
(b) CNCCN(C)Cc1c[nH]nc1-c1ccc(OCCOc2ccc(OC(C)C)cc2)cc1
I'd appreciate it if you could identify which of a and b has the greater pIC50. // return label of chosen record
b

(1) CNCCN(C)Cc1c[nH]nc1-c1cc(F)c(Cl)c(C(F)(F)F)c1
(2) CNCCN(C)Cc1c[nH]nc1-c1ccc(OCCOc2cccc(C(C)C)c2)cc1
(3) CNCCN(C)Cc1c[nH]nc1-c1ccc(OCCCS(C)(=O)=O)cc1
(4) CNCCN(C)Cc1c[nH]nc1-c1ccc(OC2CCC(OC(C)C)CC2)cc1 (stereo not drawn)
Please rank these compounds by pIC50 in descending order. Thanks in advance for listing the labels in the requested order.
1, 2, 4, 3
(1: 8.17, 2: 7.89, 4: 7.64, 3: 7.33)

----------
# target under test: human PRMT1 (Homo sapiens)
# Construct: GST-tagged PRMT1; made in house; host or cells: High Five insect cells (baculovirus, pFastBac1)
# protocol text: PRMT1 Biochemical Assay
# test settings: peptide substrate, 3H-SAM Flashplate assay; read-out: PRMT1 IC50
pIC50: −log10 of the molar value.
test readout: pIC50

(I) CCN(CCOc1ccc(OC)cc1)c1ccc(-c2n[nH]cc2CN(C)CCNC)cc1
(II) CNCCN(C)Cc1c[nH]nc1-c1ccc(OC2CC(OCC(C)C)C2)cc1 (stereo not drawn)
(III) CNCCN(C)Cc1c[nH]nc1-c1cc(OC2CCCC2)cc(C(F)(F)F)c1
Please rank the 3 items above; order by pIC50, the highest number leading. Thanks in advance for listing the labels in the requested order.
I, III, II

(1) CNCCN(C)Cc1c[nH]nc1-c1ccc(N(C)C2CCOCC2)nc1
(2) CNCCN(C)Cc1cnn(C2CCC2)c1-c1ccc(OC(C)C)cc1
(3) CNCCN(C)Cc1c[nH]nc1-c1cc(OCCOC)cc(C(F)F)c1
Hey, quick one: sort these by pIC50, low to high? Thanks in advance for listing the labels in the requested order.
2, 1, 3

(I) CNCCN(C)Cc1c[nH]nc1-c1cc(F)c(OC(CO)CO)c(C(F)(F)F)c1
(II) CNCCN(C)Cc1c[nH]nc1-c1ccc(OCCOc2ccc(CO)cc2)cc1
Which has the smaller recorded pIC50, I or II ? // return label of chosen record
I
(I: 7.45, II: 8.24)

----------
# target under test: human PRMT8 (Homo sapiens)
# protocol text: PRMT8 Biochemical Assay
# test settings: PRMT8 IC50 (uM), peptide substrate, 3H-SAM Flashplate assay
test readout: IC50 (µM)

The cases that follow already have their IC50 on record.
CNCCN(C)Cc1c[nH]nc1-c1ccc(OCCOc2ccc(OCc3ccccc3)cc2)cc1: 0.024
CNCCN(C)Cc1c[nH]nc1-c1ccc(N2CCCCC2)nc1: 0.0371
CNCCN(C)Cc1c[nH]nc1-c1ccc(CC(C)C)cc1: 0.0136

(1) CNCCN(C)Cc1c[nH]nc1-c1ccc(N(C)CCOc2cccc(OC)c2)cc1
(2) CNCCN(C)Cc1c[nH]nc1-c1ccc(OCCOc2cccc(C)c2)cc1
I'd appreciate it if you could identify which of 1 and 2 has the greater IC50. // return label of chosen record
1
(1: 0.042 µM, 2: 0.0133 µM)

----------
# target under test: human PRMT8 (Homo sapiens, UniProt Q9NR22)
# Sequence (Q9NR22 whole entry): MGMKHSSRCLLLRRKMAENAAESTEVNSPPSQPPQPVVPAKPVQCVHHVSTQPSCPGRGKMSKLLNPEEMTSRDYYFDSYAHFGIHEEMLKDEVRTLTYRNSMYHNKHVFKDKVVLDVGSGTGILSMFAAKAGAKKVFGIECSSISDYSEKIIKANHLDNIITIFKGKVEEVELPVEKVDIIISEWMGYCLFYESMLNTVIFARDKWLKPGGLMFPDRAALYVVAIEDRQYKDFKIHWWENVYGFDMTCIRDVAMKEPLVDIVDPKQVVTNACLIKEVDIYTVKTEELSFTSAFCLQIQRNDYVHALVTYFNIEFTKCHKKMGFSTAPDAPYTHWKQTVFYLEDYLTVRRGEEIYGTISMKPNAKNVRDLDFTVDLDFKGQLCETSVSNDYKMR
# protocol text: PRMT8 Biochemical Assay
# test settings: PRMT8 IC50 (uM), peptide substrate, 3H-SAM Flashplate assay
test readout: IC50 (µM)

CNCCN(C)Cc1c[nH]nc1-c1ccc(N(C)CC(C)C)cc1: 0.0819

(A) CNCCN(C)Cc1c[nH]nc1-c1ccc(OCCCOC)c(OCC2CCOC2)c1 (centres unmarked)
(B) CNCCN(C)Cc1c[nH]nc1-c1ccc(OCCCOC)c(OCC2CCOCC2)c1
(C) CNCCN(C)Cc1c[nH]nc1-c1ccc(N(C)CCCOc2ccc(OC)cc2)cc1 [Compound 12]
(D) CNCCN(C)Cc1c[nH]nc1-c1ccc(OCCOc2cccnn2)cc1
Please rank these compounds by IC50 in descending order. Thanks in advance for listing the labels in the requested order.
B, A, D, C
(B: 0.424 µM, A: 0.295 µM, D: 0.117 µM, C: 0.0264 µM)

----------
# target under test: human PRMT6 (Homo sapiens)
# Construct: Flag-PRMT6-His; made in house; host or cells: HEK 293F cells (BacMam baculovirus, pFastBacMam)
# protocol text: PRMT6 Biochemical Assay
# test settings: peptide substrate, 3H-SAM Flashplate assay; read-out: PRMT6 IC50
pIC50: −log10 of the molar value.
test readout: pIC50

CNCCN(C)Cc1c[nH]nc1-c1ccc(N(C)CCOc2ccc(OC)cc2)cc1: 8.05
CNCCN(C)Cc1c[nH]nc1-c1ccc(OCCOc2ccc(OCc3ccccc3)cc2)cc1: 8.65
CNCCN(C)Cc1c[nH]nc1-c1ccc(OC(COc2ccccc2)COc2ccccc2)cc1: 8.20

(I) CNCCN(C)Cc1c[nH]nc1-c1ccc(OCCOc2ccc(OC)cc2)cc1
(II) CNCCN(C)Cc1c[nH]nc1-c1cc(OCCCC(C)C)cc(C(F)(F)F)c1
I'd appreciate it if you could identify which of I and II has the greater pIC50. // return label of chosen record
I
(I: 8.39, II: 6.54)
